Source of measurements: the Kinase Knowledgebase extract (Sharma et al. 2016)

biological target: CDK2 (UniProt P24941)
OBSERVED_PROPERTY: IC50 (nM)
Give the quantity in nM, number only.

Example compounds with recorded IC50:
{"COMPOUND": "Cc1c(C(=O)N2CCCCC2)c[nH]c1/C=C1\\C(=O)Nc2cccc(-c3ccncc3)c21", "IC50 [nM]": 750}
{"COMPOUND": "O=C1Nc2cccc(C3CCNCC3)c2/C1=C/c1[nH]cc2c1CCOC2=O", "IC50 [nM]": 9}
{"COMPOUND": "Cc1c(C(=O)N2CCOCC2)c[nH]c1/C=C1\\C(=O)Nc2cccc(C3CCNCC3)c21", "IC50 [nM]": 20}
{"COMPOUND": "Cc1nc[nH]c1/C=C1\\C(=O)Nc2cccc(-c3ccncc3)c21", "IC50 [nM]": 30}
{"COMPOUND": "Cc1nc[nH]c1/C=C1\\C(=O)Nc2cccc(C3CCNCC3)c21", "IC50 [nM]": 10}

Shift focus to the following entry.
Response field IC50 (CDK2 (UniProt P24941)) for item O=C1Nc2cccc(-c3ccncc3)c2/C1=C/c1[nH]cc2c1CCOC2=O : 80
